test: Pharmacokinetics of inhaled quaternary ammonium salts, plasma levels; assay type: in vivo, Balb/c mice; conditions: Balb/c, mouse, plasma, inhaled; inhalation of 0.144 mg/ml, 30 min; read-out: Plasma concentration ± std dev
PROPERTY: concentration at 30 min (ng/mL)
Answers are plain numbers, in ng/mL.

The compound listed as "Cc1ccc(O)c([C@H](CC[N+](C)(C(C)C)C(C)C)c2ccccc2)c1.[I-]" has a reported concentration at 30 min of 0.112

----------
experiment: Pharmacokinetics of inhaled quaternary ammonium salts, plasma levels; assay type: in vivo, Balb/c mice; settings: Balb/c, mouse, plasma, inhaled; inhalation of 0.144 mg/ml, 2.5 min; read-out: Plasma concentration ± std dev
PROPERTY: concentration at 2.5 min

Per the record, "Cc1ccc(O)c([C@H](CC[N+](C)(C(C)C)C(C)C)c2ccccc2)c1.[I-]" has concentration at 2.5 min of 0.264 ng/mL

----------
Target: muscarinic receptor M4 (Homo sapiens, UniProt P08173)
Construct: expressed in transfected cells
Sequence (P08173 1-479): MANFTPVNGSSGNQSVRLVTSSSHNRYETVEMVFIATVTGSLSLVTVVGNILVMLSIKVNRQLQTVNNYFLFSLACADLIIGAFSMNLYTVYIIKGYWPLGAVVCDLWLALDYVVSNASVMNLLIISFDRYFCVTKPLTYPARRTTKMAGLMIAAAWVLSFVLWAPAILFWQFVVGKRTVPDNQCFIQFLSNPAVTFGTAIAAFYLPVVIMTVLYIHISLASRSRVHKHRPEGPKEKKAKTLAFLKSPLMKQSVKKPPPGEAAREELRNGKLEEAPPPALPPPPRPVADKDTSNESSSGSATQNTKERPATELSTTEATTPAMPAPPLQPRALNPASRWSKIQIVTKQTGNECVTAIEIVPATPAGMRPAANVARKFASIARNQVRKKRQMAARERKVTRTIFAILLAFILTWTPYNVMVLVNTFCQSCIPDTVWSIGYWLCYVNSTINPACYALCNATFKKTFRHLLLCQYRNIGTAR
Assay: Muscarinic receptor subtype M4 binding assay, radioligand displacement
Conditions: [3]H-methylscopolamine displacement, membranes from recombinant mammalian cell lines
Threshold-based label: Ki under 4 nM gives Condition met, Ki not under 4 nM gives Condition not met.

Cc1ccc(O)c(C(CC[N+]2(C)CCCCC2)c2ccccc2)c1.[I-] (centres unmarked) [Example 33]	Condition met
Cc1ccc(O)c([C@H](CC[N+](C)(C(C)C)C(C)C)c2ccccc2)c1.[Br-] [Example 3]	Condition met
CC(C)[N+](C)(CC[C@H](c1ccccc1)c1cc(CO)ccc1O)C(C)C.[I-] [Example 8]	Condition met
Cc1ccc(O)c(C(CC[N+]2(C)CCCCCC2)c2ccccc2)c1.[I-] (centres unmarked) [Example 34]	Condition met

Now turn to the next molecule.
In the record for Cc1ccc(O)c(C(CC[N+]2(C)CCCC2)c2ccccc2)c1.[I-] (centres unmarked) [Example 31] , is Ki less than 4 nM?
Condition not met

----------
biological target: muscarinic receptor M2 (Homo sapiens, UniProt P08172); construct: expressed in transfected cells; experiment: Muscarinic receptor subtype M2 binding assay, radioligand displacement; conditions: [3]H-methylscopolamine displacement, membranes from recombinant mammalian cell lines
Sequence (P08172 whole entry): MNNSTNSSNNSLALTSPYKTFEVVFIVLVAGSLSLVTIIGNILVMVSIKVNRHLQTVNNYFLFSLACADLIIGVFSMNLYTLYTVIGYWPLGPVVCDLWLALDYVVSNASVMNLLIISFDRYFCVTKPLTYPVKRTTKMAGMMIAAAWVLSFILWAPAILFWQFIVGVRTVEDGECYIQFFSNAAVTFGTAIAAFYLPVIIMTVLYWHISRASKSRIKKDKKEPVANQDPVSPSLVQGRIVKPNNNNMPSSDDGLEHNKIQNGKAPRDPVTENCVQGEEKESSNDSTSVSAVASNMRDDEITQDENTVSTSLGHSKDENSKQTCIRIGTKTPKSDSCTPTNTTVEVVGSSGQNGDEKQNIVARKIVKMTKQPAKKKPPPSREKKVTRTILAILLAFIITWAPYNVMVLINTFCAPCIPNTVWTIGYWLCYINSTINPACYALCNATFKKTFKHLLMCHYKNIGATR
PROPERTY: Ki (nM)
One number for each entry, in nM.

These solved cases illustrate the format of a correct answer.
Cc1ccc(O)c(C(CC[N+]2(C)CCCCC2)c2ccccc2)c1.[I-] (stereo not shown) [Example 33]	1.7
CC(C)[N+](C)(CC[C@H](c1ccccc1)c1cc(CO)ccc1O)C(C)C.[I-] [Example 8]	1.08
Cc1ccc(O)c(C(CC[N+]2(C)CCCCCC2)c2ccccc2)c1.[I-] (stereo not shown) [Example 34]	1
CC[N+]1(CCC(c2ccccc2)c2cc(C)ccc2O)CCCC1.[I-] (stereo not shown) [Example 32]	1.7
Cc1ccc(O)c([C@H](CC[N+](C)(C(C)C)C(C)C)c2ccccc2)c1.[Br-] [Example 3]	0.52
CC(C)N(CC[C@H](c1ccccc1)c1cc(CO)ccc1O)C(C)C [Hydroxytolterodine, reference compound]	0.33

Item Cc1ccc(O)c(C(CC[N+]2(C)CCCC2)c2ccccc2)c1.[I-] (stereo not shown) [Example 31] ; assay system muscarinic receptor M2 (Homo sapiens, UniProt P08172); Ki reported as 2.2

These entries and their values trace back to patent US6890920B2.
